Ref: paper doi:10.1101/2025.09.11.675134

Test: Ex vivo biodistribution screen of 111In-labeled DOTA-TATE derivatives in normal mice
Set-up: species or system athymic nude mice
Details: athymic nude, mouse, liver, iv, 1 ug per mouse, total radioactivity, normal athymic nude mice, 2 h post-injection, i.v. 1 μg, ex vivo, mean, n = 2–4, read-out: Liver uptake
Positions of bridges follow the written chain, without caps; N, C: chain ends. Non-standard residues stand in square brackets, D forms with d. Residues, ends and D or L forms follow the SMILES beside them. *: point of attachment. DOTA = O=C(O)CN1CCN(CC(=O)O)CCN(CC(=O)*)CCN(CC(=O)O)CC1
Metric: tissue uptake at 2 h (%ID/g)
Numeric only. Scale: %ID/g

For C[C@@H](O)[C@H](NC(=O)[C@@H]1CSSC[C@H](NC(=O)[C@@H](Cc2ccccc2)NC(=O)CNC(=O)[C@H](CC(=O)O)NC(=O)[C@H](CC(=O)O)NC(=O)[C@H](CC(=O)O)NC(=O)CNC(=O)CN2CCN(CC(=O)O)CCN(CC(=O)O)CCN(CC(=O)O)CC2)C(=O)N[C@@H](Cc2ccc(O)cc2)C(=O)N[C@H](Cc2c[nH]c3ccccc23)C(=O)N[C@@H](CCCCN)C(=O)N[C@@H]([C@@H](C)O)C(=O)N1)C(=O)O [^111In-DOTA-GDDDG-TATE, metal not drawn] ({DOTA}-GDDDG[dF]CY[dW]KTCT-OH; disulfide 7-12) , write its tissue uptake at 2 h.
0.07

---

Experiment: Ex vivo biodistribution screen of 111In-labeled DOTA-TATE derivatives in normal mice
Design: species or system athymic nude mice
Details: athymic nude, mouse, muscle, iv, 1 ug per mouse, total radioactivity, normal athymic nude mice, 2 h post-injection, i.v. 1 μg, ex vivo, mean, n = 2–4, read-out: Muscle uptake
Description: The panel of 10 compounds were then tested in an initial biodistribution screen of 9 organs assessed in non-tumor-bearing mice at specific timepoints following administration of the radioconjugates. […] Biodistribution, PET Quantification, and Dosimetry […] Radiolabeling efficiency and radiochemical purity were determined by radio -TLC and radio - HPLC. […]
Positions of bridges follow the written chain, without caps; N, C: chain ends. Non-standard residues stand in square brackets, D forms with d. Residues, ends and D or L forms follow the SMILES beside them. *: point of attachment. DOTA = O=C(O)CN1CCN(CC(=O)O)CCN(CC(=O)*)CCN(CC(=O)O)CC1
Give tissue uptake at 2 h for every item shown.
Numeric only. Scale: %ID/g

For CSCC[C@H](NC(=O)CN1CCN(CC(=O)O)CCN(CC(=O)O)CCN(CC(=O)O)CC1)C(=O)N[C@H](C(=O)N[C@@H](CCCCNC(=O)CCCC(=O)N[C@H](Cc1ccccc1)C(=O)N[C@H]1CSSC[C@@H](C(=O)N[C@H](C(=O)O)[C@@H](C)O)NC(=O)[C@H]([C@@H](C)O)NC(=O)[C@H](CCCCN)NC(=O)[C@@H](Cc2c[nH]c3ccccc23)NC(=O)[C@H](Cc2ccc(O)cc2)NC1=O)C(=O)O)C(C)C [^111In-DOTA-MVK(ε)-TATE, metal not drawn] , write its tissue uptake at 2 h.
0.06

For C[C@@H](O)[C@H](NC(=O)[C@@H]1CSSC[C@H](NC(=O)[C@@H](Cc2ccccc2)NC(=O)[C@H](Cc2ccc(O)cc2)NC(=O)CNC(=O)CN2CCN(CC(=O)O)CCN(CC(=O)O)CCN(CC(=O)O)CC2)C(=O)N[C@@H](Cc2ccc(O)cc2)C(=O)N[C@H](Cc2c[nH]c3ccccc23)C(=O)N[C@@H](CCCCN)C(=O)N[C@@H]([C@@H](C)O)C(=O)N1)C(=O)O [^111In-DOTA-GY-TATE, metal not drawn] ({DOTA}-GY[dF]CY[dW]KTCT-OH; disulfide 4-9) , write its tissue uptake at 2 h.
0.03
